target: SzeaOBP1 (Sitophilus zeamais, UniProt A0A4P9CZ78); assay: Fluorescence competitive binding assay (1-NPN probe) with recombinant SzeaOBP1; details: calculated from IC50 with K1-NPN 8.590 μM; protein and 1-NPN 2 μM, Tris-HCl pH 7.4; read-out: Ki SzeaOBP1
Sequence (A0A4P9CZ78 entry or part of it): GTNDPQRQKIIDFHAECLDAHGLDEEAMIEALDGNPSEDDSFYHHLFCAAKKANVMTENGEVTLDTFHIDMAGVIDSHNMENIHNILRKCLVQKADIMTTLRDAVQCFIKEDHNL
Please assign a class to every record based on measured Ki, with ranges low = under 4 µM, mid = from 4 µM up to 7 µM, high = 7 µM and over

Solved entries:
Which class is correct for the following compound? CC1=CC[C@@H]2C[C@H]1C2(C)C [(+)-a-Pinene]
high

Which class is correct for the following compound? CCCCC/C=C\C/C=C\CCCCCCCC(=O)O [Linoleic acid]
high

Which class is correct for the following compound? CCCCCCCCC=O [Nonanal]
mid

***
Which class is correct for the following compound? CCCCCCCCCCCCCCCC(=O)O [Palmitic Acid, Palmitic acid]
high

Which class is correct for the following compound? CC(=O)O [Acetic acid (glacial)]
high

Which class is correct for the following compound? CCCCCCCC=O [n-Octanaldehyde]
low

Which class is correct for the following compound? CC(C)CC=O [3-Methylbutanal]
mid

Which class is correct for the following compound? CCC(C)C=O (stereo not drawn) [2-Methylbutyraldehyde]
mid

----------
molecular target: SzeaOBP1 (Sitophilus zeamais, UniProt A0A4P9CZ78); assay: Fluorescence competitive binding assay (1-NPN probe) with recombinant SzeaOBP1
measurement.name: Ki

Worked cases, Ki given:
Identify the reported Ki for the following entry. O=Cc1ccccc1
4.44 µM

Identify the reported Ki for the following entry. CC(=O)CCC=C(C)C
5.55 µM

Identify the reported Ki for the following entry. CCCC(C)=O
9.92 µM

Identify the reported Ki for the following entry. COCCOC(=O)c1ccccc1C(=O)OCCOC [Bis(methylglycol) phthalate, Bis(2-methoxyethyl) phthalate]
4.07 µM

Identify the reported Ki for the following entry. COc1cc(C=O)ccc1O [4-Hydroxy-3-methoxybenzaldehyde]
3.73 µM

// switching to the query compound
Identify the reported Ki for the following entry. CCCCCC=O
5.18 µM

----------
Quick list: Ki per entry.
biological target: UniProt:A0A4P9CZ78; test: Fluorescence competitive binding assay (1-NPN probe) with recombinant SzeaOBP1; conditions: calculated from IC50 with K1-NPN 8.590 μM; protein and 1-NPN 2 μM, Tris-HCl pH 7.4; read-out: Ki SzeaOBP1
Numeric answer only, unit µM assumed.

Identify the reported Ki for the following entry. C=CC(=C)CCC=C(C)C [Myrcene (stabilized with BHT)]
30.3

Identify the reported Ki for the following entry. CCCCCCO
4.67

Identify the reported Ki for the following entry. CC(C)=O
4.54

Identify the reported Ki for the following entry. CCCCCCCCO
6.67

Identify the reported Ki for the following entry. CC(C)C=O
4.26

Identify the reported Ki for the following entry. CCCCC=O
4.88

// switching to the query molecule
Identify the reported Ki for the following entry. CCCCCCC=O
4.87

----------
Molecular target: SzeaOBP1 (Sitophilus zeamais)
Test: Fluorescence competitive binding assay (1-NPN probe) with recombinant SzeaOBP1
Settings: fluorescence competitive binding
Description: Emission fluorescence spectra were recorded on a Fluoromax-4500 fluorescence spectrophotometer (Hitachi, Tokyo, Japan) at room temperature in right-angle configuration, with a 1 cm light-path quartz cuvette and 5 nm slits for both excitation and emission. […] After the sample was added, the fluorescence intensity was allowed to stabilize (approximately 15 s), and the maximum fluorescence intensity was recorded; the binding constant between the protein and probe was determined. […]
measurement.name: binding to SzeaOBP1, in words

Identify the reported binding to SzeaOBP1, in words for the following entry. CCCCCCCCCC=O
did not bind

Identify the reported binding to SzeaOBP1, in words for the following entry. CCCCC/C=C\C/C=C\CCCCCCCC(=O)O
did not bind

Identify the reported binding to SzeaOBP1, in words for the following entry. CC1=CC[C@@H]2C[C@H]1C2(C)C [(+)-a-Pinene]
did not bind
